The measured values listed here are drawn from PubChem BioAssay (NCATS).

Experiment: Viability qHTS for spleen associated tyrosine kinase inhibitor (SYKi) naive MV4-11 cells (AID 1963823); also: nearly all actives have a fitted effect of over 40% in size
Conditions: MV4-11 AML viability, CellTiter-Glo luminescence, 72 h; series mostly up to 45 µM
Records with an inconclusive call do not appear. The source made the active and inactive calls. Calls follow the shape of the dose curve; as a rule, active = well fitted cell-killing curve with a large enough effect; inconclusive = small, poorly fitted or top-dose-only effect, or effect the other way; inactive = no such curve, though single readings can be large or run the other way.
Exercise: state measured viability (% of control) for each of the molecules provided.

Solved cases (6 shown):
>>> endpoint_result("CC1OC(OC2C(OC3C(O[C@H]4CC[C@@]5(C)C(CC[C@]6(C)C5C(=O)CC5=C7CC(C)(C)CC(O)[C@]7(C)CC[C@]56C)C4(C)C)OC(C(=O)O)C(O)C3O)OCC(O)C2O)C(O)C(O)C1O (some centres not stated)")
"77.2% [at 9.25 µM] (inactive)"
>>> endpoint_result("NC[C@@H]1O[C@@H](O[C@@H]2[C@@H](O[C@@H]3O[C@H](CO)[C@@H](O)[C@H]3O)[C@H](O)[C@@H](N)C[C@H]2N)[C@@H](N)[C@H](O)[C@H]1O")
"88.1% [at 9.25 µM] (inactive)"
>>> endpoint_result("C=C1CC[C@@]2(OC1)O[C@H]1CC3C4CC=C5C[C@@H](O[C@@H]6O[C@@H](C)[C@H](O)[C@@H](O)[C@H]6O)C[C@@H](O[C@@H]6O[C@H](C)[C@H](O)[C@H](O)[C@H]6O[C@@H]6O[C@@H](C)[C@H](O)[C@@H](O)[C@H]6O)[C@]5(C)C4CC[C@]3(C)[C@H]1[C@@H]2C (some centres not stated)")
"70.4% [at 9.25 µM] (inactive)"
>>> endpoint_result("C=CC(C)(CC/C=C(\\C)C(=O)OC[C@H]1O[C@@H](OC(C)(C=C)CC/C=C(\\C)C(=O)O[C@H]2[C@H](O)[C@@H](O)[C@H](OC(C)(C=C)CC/C=C(\\C)C(=O)O)O[C@@H]2CO)[C@H](O)[C@@H](O)[C@@H]1O)O[C@@H]1O[C@H](CO)[C@@H](O)[C@H](O)[C@H]1O (some centres not stated)")
"81.1% [at 9.25 µM] (inactive)"
>>> endpoint_result("CC(C)CC(=O)O[C@@H]1O[C@H](CO)[C@@H](O[C@H]2O[C@H](C)[C@@H](N[C@H]3C=C(CO)[C@@H](O[C@H]4O[C@H](CO)[C@@H](O[C@H]5O[C@H](CO)[C@@H](O[C@H]6O[C@H](CO)[C@@H](O)[C@H](O)[C@H]6O)[C@H](O)[C@H]5O)[C@H](O)[C@H]4O)[C@H](O)[C@H]3O)[C@H](O)[C@H]2O)[C@H](O)[C@H]1O")
"82.5% [at 9.25 µM] (inactive)"
>>> endpoint_result("CC1(C)CC[C@]2(C(=O)O[C@@H]3O[C@H](CO)[C@@H](O)[C@H](O)[C@H]3O)CC[C@]3(C)C(=CCC4[C@@]5(C)CC[C@H](O[C@@H]6O[C@H](C(=O)O)[C@@H](O[C@@H]7O[C@H](CO)[C@@H](O)[C@H](O)[C@H]7O)[C@H](O)[C@H]6O[C@@H]6O[C@H](CO)[C@@H](O)[C@H](O)[C@H]6O)C(C)(C)C5CC[C@]43C)C2C1 (some centres not stated)")
"93% [at 9.25 µM] (inactive)"

Below: the item to evaluate.
**Query** Can you share its viability (% of control)? I mean this molecule: C[C@@H]1CC[C@@]2(OC1)O[C@H]1C[C@H]3[C@@H]4CC[C@H]5C[C@@H](O)CC[C@]5(C)[C@H]4CC(=O)[C@]3(C)[C@H]1[C@@H]2C
**Result** 83.6% [at 4.97 µM] (inactive)

###

Assay: Quantitative highthroughput screen to assess conditional lethalithy of NOMO1 cells grown in RPMI1640 with dialyzed fetal bovine serum (RPMI+ds) (AID 1963877); also: nearly all actives have a fitted effect of over 30% in size; also: potency is read from the fitted curve at half-maximal effect;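 as to viability: 100% = DMSO control wells and 0% = empty wells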
Settings: NOMO1 in RPMI+dialyzed FBS viability, ATP luminescence, 48 h; series mostly up to 45.8 µM
Results filed as inconclusive are left out. Active and inactive are the calls of the source. Calls come from the whole dose curve; as a rule, active = well fitted cell-killing curve with a large enough effect; inconclusive = small, poorly fitted or top-dose-only effect; inactive = flat fitted curve, though single readings scatter.
Measure Name: Potency

Consider the worked cases shown below.
>>> endpoint_result("CCS(=O)(=O)N1CC(CC#N)(n2cc(-c3ncnc4[nH]ccc34)cn2)C1")
"inactive"
>>> endpoint_result("CN1c2cc(O)c(N=NC(N)=O)cc2CC1S(=O)(=O)O (stereo unspecified)")
"inactive"
>>> endpoint_result("Cc1c(Cn2c(C)nc3c(C(=O)O)cc(N4CCOCC4)cc32)cccc1C(F)(F)F")
"inactive"
>>> endpoint_result("C[C@@H]1CN(CC(=O)N2CC(C)(C)c3ncc(Cc4ccc(F)cc4)cc32)[C@@H](CN2CCOC[C@H]2C)CN1")
"20.9 µM (active)"
>>> endpoint_result("COc1cc(OC2CCN(C)CC2)ccc1Nc1ncc2c(n1)n(C1CCCC1)c(=O)n2C")
"18.7 µM (active)"
>>> endpoint_result("NC(=O)c1ncn([C@@H]2O[C@H](CO)[C@@H](O)[C@@H]2O)c1N")
"inactive"
>>> endpoint_result("COc1cccc(OC)c1-c1cc(C(=O)NC2(C(=O)O)C3CC4CC(C3)CC2C4)nn1-c1ccnc2cc(Cl)ccc12 (stereo unspecified)")
"inactive"
>>> endpoint_result("CN[C@H](CC(C)C)C(=O)N[C@H]1C(=O)N[C@@H](CC(N)=O)C(=O)N[C@@H]2C(=O)N[C@H]3C(=O)N[C@H](C(=O)N[C@H](C(=O)O)c4cc(O)cc(O)c4-c4cc3ccc4O)[C@H](O)c3ccc(c(Cl)c3)Oc3cc2cc(c3O[C@@H]2O[C@H](CO)[C@@H](O)[C@H](O)[C@@H]2O[C@H]2C[C@](C)(N)[C@H](O)[C@H](C)O2)Oc2ccc(cc2Cl)[C@H]1O")
"inactive"

Kindly give each listed record's Potency.
1. CC(C)C(C)C=CC(C)C1CCC2C3=CC=C4CC(O)CCC4(C)C3CCC21C (stereo unspecified)
2. C=C(c1ccc(C(=O)O)cc1)c1cc2c(cc1C)C(C)(C)CCC2(C)C
3. Oc1ccc(C2=Cc3ccc(O)cc3OC2)cc1

**Result**
["inactive", "1.05 µM (active)", "11.8 µM (active)"]

###

Test: Viability qHTS for spleen associated tyrosine kinase inhibitor (SYKi) drug resistant MV4-11 cells (AID 1963824); also: nearly all actives have a fitted effect of over 35% in size
Settings: SYKi-resistant MV4-11 viability, CellTiter-Glo, 72 h; series mostly up to 45 µM
Description: Department of Medicine, Hematology/Oncology University Hospital Frankfurt, Germany. Trials have shown promising clinical activity of the selective SYK inhibitor entospletinib in patients with high expressing HOXA9/MEIS1 acute leukemias. […] 7; Detection; Luminescence; ViewLux plate reader (PerkinElmer). […] 1. Quantitative high-throughput screening (qHTS) of small molecule compounds was conducted on drug resistant SYKi MV4-11 cell line. […] 7. Luminescence was measured on a ViewLux plate reader (PerkinElmer).
Inconclusive results are not listed. Active and inactive are the calls of the source. Calls follow the shape of the dose curve; as a rule, active = well fitted cell-killing curve with a large enough effect; inconclusive = small, poorly fitted or top-dose-only effect, or effect the other way; inactive = no such curve, though single readings can be large or run the other way.
Select the matching outcome among active, inactive

**Query** Recorded call for CCC/C=C/C=C/C1CC(O)C2(O)C(=O)OCC12 (stereo not drawn) ?
**Result** inactive

**Query** Dear all, I need the recorded test outcome for O=S(c1cc(Cl)cc(Cl)c1O)c1cc(Cl)cc(Cl)c1O , thank you.
**Result** inactive

**Query** Hey, what did the test say about CC(C)Nc1cccnc1N1CCN(C(=O)c2cc3cc(NS(C)(=O)=O)ccc3[nH]2)CC1 ?
**Result** inactive

###

Test: Cellular viability qHTS for adrenocortical cancer (ACC) cell line SW-13 (AID 1963989); also: potency is read from the fitted curve at half-maximal effect; nearly all actives have a fitted effect of over 65% in size
Details: SW-13 ACC cells viability, CellTiter-Glo, 48 h
Results filed as inconclusive are left out. The source made the active and inactive calls. Calls follow the shape of the dose curve; as a rule, active = well fitted cell-killing curve with a large enough effect; inconclusive = small, poorly fitted or top-dose-only effect; inactive = flat fitted curve, though single readings scatter.
Measure Name: Potency

Examples from the recorded data:
>>> endpoint_result("COc1cc2c(Nc3ccc(Cl)c(Cl)c3F)ncnc2cc1OCC1C[C@@H]2CN(C)C[C@@H]2C1 (stereo partly drawn)")
"2 µM (active)"
>>> endpoint_result("Nc1ccccc1NC(=O)c1ccc(CNc2nccc(-c3cccnc3)n2)cc1")
"3.98 µM (active)"
>>> endpoint_result("Cc1ccc(S(=O)(=O)Cc2nc(-c3ccc(C(=O)NCc4cccnc4)cc3)oc2C)cc1")
"0.199 µM (active)"
>>> endpoint_result("Cn1cnc(-c2cc3nccc(Oc4ccc(NC(=S)NC(=O)Cc5ccccc5)cc4F)c3s2)c1")
"22.4 µM (active)"
>>> endpoint_result("CC1(C)CCC2=C(O1)c1ccccc1C(=O)C2=O")
"15.8 µM (active)"
>>> endpoint_result("CN[C@@H]1C[C@H]2O[C@@](C)([C@@H]1OC)n1c3ccccc3c3c4c(c5c6ccccc6n2c5c31)C(=O)N[C@H]4O")
"0.376 µM (active)"
>>> endpoint_result("COc1cc2c(Oc3ccc4[nH]c(C)cc4c3F)ccnc2cc1OCC1(N)CC1")
"11.2 µM (active)"
>>> endpoint_result("O=C(CCl)Nc1cccc(NC2=NS(=O)(=O)c3ccccc32)c1")
"8.91 µM (active)"

Parameters: items (list). Returns: Potency for each item.
1. CO[C@@H]1[C@@H](O)[C@H](O)[C@@H](n2c3c(Cl)cccc3c3c4c(c5c6cccc(Cl)c6[nH]c5c32)C(=O)NC4=O)O[C@H]1CO
2. Cc1ccc(F)c(NC(=O)Nc2ccc(-c3cccc4[nH]nc(N)c34)cc2)c1
3. O[C@@H](c1cc(C(F)(F)F)nc2c(C(F)(F)F)cccc12)[C@H]1CCCCN1
4. CCN1C(=O)N2Cc3cc(OC)cc(OC)c3[C@@H](C)C=C2C12CCN(Cc1cc(C)cc(C)c1)CC2
5. Cc1nc(N)nc(N)c1-c1ccc(Cl)c(Cl)c1

**Result**
1: 0.316 µM (active); 2: 22.4 µM (active); 3: 16.4 µM (active); 4: 28.2 µM (active); 5: 0.231 µM (active)
